The measured values listed here are drawn from patent US8772499B2.

target: human TRPV3 (Homo sapiens); construct: expressed in transfected cells; assay: In vitro antagonism of recombinant human TRPV3 activation (FLIPR Tetra calcium assay); type: cell-based; settings: HEK293 cells stably expressing human TRPV3; agonist 2-APB at 80 μM; actual measured value shown parenthetically; in most cases average of at least two runs; read-out: IC50
Sequence (Q8NET8 whole entry): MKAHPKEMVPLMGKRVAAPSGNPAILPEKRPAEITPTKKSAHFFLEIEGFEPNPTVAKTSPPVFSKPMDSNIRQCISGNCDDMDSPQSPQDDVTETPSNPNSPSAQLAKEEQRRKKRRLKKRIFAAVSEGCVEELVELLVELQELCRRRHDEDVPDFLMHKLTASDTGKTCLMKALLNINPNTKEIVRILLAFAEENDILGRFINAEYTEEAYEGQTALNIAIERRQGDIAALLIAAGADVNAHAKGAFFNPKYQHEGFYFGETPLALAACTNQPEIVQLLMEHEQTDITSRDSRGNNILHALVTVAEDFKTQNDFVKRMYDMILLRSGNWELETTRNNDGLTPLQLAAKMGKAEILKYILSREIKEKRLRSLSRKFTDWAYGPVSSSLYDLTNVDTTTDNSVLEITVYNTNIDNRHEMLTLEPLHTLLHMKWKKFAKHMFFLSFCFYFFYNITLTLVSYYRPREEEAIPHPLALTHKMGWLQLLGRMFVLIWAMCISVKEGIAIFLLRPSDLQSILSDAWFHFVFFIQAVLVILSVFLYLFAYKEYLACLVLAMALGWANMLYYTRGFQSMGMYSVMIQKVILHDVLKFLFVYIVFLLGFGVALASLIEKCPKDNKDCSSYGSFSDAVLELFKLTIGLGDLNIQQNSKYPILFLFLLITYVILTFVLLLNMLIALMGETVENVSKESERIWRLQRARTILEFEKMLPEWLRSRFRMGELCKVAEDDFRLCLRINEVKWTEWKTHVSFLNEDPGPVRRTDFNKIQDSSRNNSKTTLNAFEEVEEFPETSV
Record form. Attribute: IC50. Fill in for each entry.

I looked up O=C1CC(c2ccc(OC(F)(F)F)cc2)([C@H](O)c2ccccn2)C1 (single isomer, unassigned) and its IC50 for human TRPV3 (Homo sapiens) was 1.97 µM

I looked up NC1CCCC1C(O)C1(c2ccc(OC(F)(F)F)cc2)CCC1 (centres unmarked) and its IC50 for human TRPV3 (Homo sapiens) was 2.63 µM

I looked up OC(c1ccccn1)C1(c2ccc(C(F)(F)F)cn2)CC(F)(F)C1 (centres unmarked) and its IC50 for human TRPV3 (Homo sapiens) was 4.87 µM

I looked up `O=C1CC(c2ccnc(C(F)(F)F)c2)([C@H](O)c2ccccn2)C1` and its IC50 for human TRPV3 (Homo sapiens) was > 20 µM

I looked up OC(c1ccccn1)C1(C2=CCOCC2)CCC1 (centres unmarked) and its IC50 for human TRPV3 (Homo sapiens) was > 20 µM
